tested on: MCF-7 cells; assay: MTT cell viability assay, MCF-7; format: cell-based, human; details: Homo sapiens, MCF7; breast cancer cells, 48 h, MTT; read-out: IC50 MCF-7
The threshold is 8 µM. Values of IC50 beneath it are tagged T; values meeting or exceeding it are tagged F.

Record excerpt, results attached:
| compound | target_under_test | group_label |
| --- | --- | --- |
| COc1ccc(NC(=[Se])NC(=O)c2ccc3c(c2)OCO3)cc1 [Compound 10c] | MCF-7 cells | F |
| O=C(NC(=[Se])Nc1ccc(Cl)cc1)c1ccc2c(c1)OCO2 [Compound 10e] | MCF-7 cells | F |
| Cc1ccc(NC(=[Se])NC(=O)c2ccc3c(c2)OCO3)cc1 [Compound 10b] | MCF-7 cells | T |
| O=C(NC(=[Se])Nc1ccc(C(F)(F)F)cc1)c1cccs1 [Compound 5d] | MCF-7 cells | T |
| O=C(NC(=[Se])Nc1ccccc1)c1ccc2c(c1)OCO2 [Compound 10a] | MCF-7 cells | T |

Dear reviewer, please state whether O=C(NC(=[Se])Nc1ccccc1)c1ccco1 [Compound 6a] has IC50 strictly beneath 8 µM.
T

Strictly below 8 µM: is that where IC50 of O=C(NC(=[Se])Nc1ccc(Cl)cc1)c1cc2ccccc2s1 [Compound 9e] sits?
F
